EXPERIMENTAL SYSTEM: T1, recombinant human PD-1-Fc-Biotin (human, UniProt Q15116 25-167, biotin (site not stated))
T1 construct: also called antigen protein human PD-1; not shown: Fc
T1 sequence (Q15116 25-167 limits assumed): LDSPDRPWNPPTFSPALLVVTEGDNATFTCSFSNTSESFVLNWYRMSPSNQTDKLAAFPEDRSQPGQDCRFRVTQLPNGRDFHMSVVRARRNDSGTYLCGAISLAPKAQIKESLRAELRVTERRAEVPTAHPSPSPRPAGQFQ
ASSAY PROCEDURE: competitive ELISA; PD-L1-mFc coated, 0.5 µg/mL PD-1-Fc-Biotin, streptavidin-HRP
READOUT: pIC50
Note on pIC50: it is the negative log10 of concentration, concentration in mol/L.

In: Fill in: pIC50 of MHPD1-A-30 H Fc (Fc fusion, not shown: Fc) QVQLVESGGGLVQPGGSLRLSCATSGVRRSIYAMGWFRQAPGKGLEFVAGIGWAYATQYYADSVKGRFTISRDNTKNTLYLQMNSLRAEDTAVYYCAADIDHSGFDYWGQGTLVTVSS is ___
Out: 8.97

In: Any idea what its pIC50 is? The binder is MHPD1-A-23 H Fc (Fc fusion, not shown: Fc region) VHH: QVQLVESGGGLVQPGGSLRLSCATSGTRRSIYAMGWFRQAPGKGLEFVAGIGWAYATTYYADSVKGRFTISRDNTKNTLYLQMNSLRAEDTAVYYCAADLDHSGFDYWGQGTLVTVSS
Out: 8.92

In: Quick one: pIC50 of MHPD1-A-15 H Fc (Fc fusion, not shown: Fc) QVQLVESGGGLVQPGGSLRLSCATSGLRRSIYAMGWFRQAPGKGLEFVAGIGWAYSTTYYADSVKGRFTISRDNTKNTLYLQMNSLRAEDTAVYYCAADLDHSGFDYWGQGTLVTVSS ?
Out: 9.29
